Every entry's value here was drawn from patent US20240109914A1.

system: M. incognita J2 larvae; test: Meloidogyne incognita in vitro larval mobility assay; format: in vivo; conditions: 45 μM, 4 days, replicate 2; z-score vs untreated DMSO wells

{"columns": ["COMPOUND", "Replicate 2 z-score"],
 "data": [
  ["O=C(NCCc1ncc(C(F)(F)F)cc1Cl)c1ccccc1C(F)(F)F [Fluopyram, fluopyram, reference compound]", "[21.99]"],
  ["Clc1ccc(-c2cn3ccsc3n2)s1", "[16.33]"],
  ["Cc1cn2cc(-c3ccccc3Cl)nc2s1", "[5.62]"],
  ["c1ccc(-c2noc(-c3cccs3)n2)cc1 [tioxazafen, reference compound]", "[21.99]"],
  ["Clc1ccc(-c2cn3c(n2)SCC3)cc1", "[16.33]"],
  ["Cc1c(-c2cccc(Cl)c2)nc2sccn12", "[4.78]"],
  ["Clc1ccc(-c2cn3ccsc3n2)cc1Cl", "[4.78]"],
  ["Brc1nn2cc(-c3ccccc3)nc2s1", "[16.33]"],
  ["Cc1cn2cc(-c3ccccc3F)nc2s1", "[5.62]"],
  ["CCOc1ccc(-c2nc3sccn3c2C=O)cc1", "[16.33]"],
  ["FC(F)Oc1ccc(-c2cn3ccsc3n2)cc1", "[16.33]"]
]}
